Value source: patent US20240368118A1

# Target: AR (Homo sapiens)
# Construct: endogenous in cells; host or cells: VCaP cells
# Sequence (P10275 whole entry): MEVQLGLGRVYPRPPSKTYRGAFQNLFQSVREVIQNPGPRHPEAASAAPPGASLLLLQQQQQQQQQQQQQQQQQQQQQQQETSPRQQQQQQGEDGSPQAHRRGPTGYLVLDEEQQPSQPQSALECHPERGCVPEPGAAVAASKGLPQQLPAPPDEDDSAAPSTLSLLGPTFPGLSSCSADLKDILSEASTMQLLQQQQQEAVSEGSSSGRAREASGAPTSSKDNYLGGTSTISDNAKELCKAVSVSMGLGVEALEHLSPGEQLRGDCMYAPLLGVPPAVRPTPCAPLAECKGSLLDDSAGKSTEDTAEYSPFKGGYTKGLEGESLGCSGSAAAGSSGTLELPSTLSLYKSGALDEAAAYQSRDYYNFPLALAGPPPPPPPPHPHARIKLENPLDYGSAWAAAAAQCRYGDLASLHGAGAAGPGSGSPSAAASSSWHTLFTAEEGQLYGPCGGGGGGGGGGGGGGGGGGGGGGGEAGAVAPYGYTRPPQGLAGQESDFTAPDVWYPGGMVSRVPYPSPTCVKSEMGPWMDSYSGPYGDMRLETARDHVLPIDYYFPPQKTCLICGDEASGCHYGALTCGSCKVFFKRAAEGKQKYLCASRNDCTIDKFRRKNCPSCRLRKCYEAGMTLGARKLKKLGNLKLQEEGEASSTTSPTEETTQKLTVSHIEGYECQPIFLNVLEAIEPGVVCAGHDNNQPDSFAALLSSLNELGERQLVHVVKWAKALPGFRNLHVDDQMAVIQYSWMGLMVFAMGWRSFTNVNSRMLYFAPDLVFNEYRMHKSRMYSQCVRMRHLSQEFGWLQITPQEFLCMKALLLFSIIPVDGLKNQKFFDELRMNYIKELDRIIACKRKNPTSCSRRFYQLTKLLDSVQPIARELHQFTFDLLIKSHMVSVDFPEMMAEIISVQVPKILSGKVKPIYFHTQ
# Assay Info: VCAP AR Degradation Assay
# Format: cell-based
# Setup Conditions: VCaP cells, 24 h; lowest AR level normalized to DMSO control; given as numbers
Reported Endpoint: Ymin

The value of Ymin measured for the compound C[C@@H]1C[C@H](OCC[C@H]2CC[C@H](N3C(=S)N(c4ccc(C#N)c(C(F)(F)F)c4)C(=O)C3(C)C)CC2)C[C@H](C)N1CC(=O)Nc1ccc(C2CCC(=O)NC2=O)cc1 (stereo partly drawn) [Cmpd 40] turned out to be 21 % of DMSO control

The value of Ymin measured for the compound CC1(C)C(=O)N(c2cnc(C#N)c(C(F)(F)F)c2)C(=S)N1[C@H]1CC[C@H](CCCN2CCN(CC(=O)Nc3ccc(C4CCC(=O)NC4=O)cc3)[C@@H](C(F)(F)F)C2)CC1 (stereo partly drawn) [Cmpd 33] turned out to be 17 % of DMSO control

The value of Ymin measured for the compound CC1(C)C(=O)N(c2ccc(C#N)c(C(F)(F)F)c2)C(=S)N1[C@H]1CC[C@H](OCCC2CCN(CC(=O)Nc3ccc(C4CCC(=O)NC4=O)cc3)CC2(F)F)CC1 (stereo partly drawn) [Cmpd 43] turned out to be 18 % of DMSO control

The value of Ymin measured for the compound C[C@@H]1C[C@@H](CCO[C@H]2CC[C@H](N3C(=S)N(c4cnc(C#N)c(C(F)(F)F)c4)C(=O)C3(C)C)CC2)C[C@H](C)N1CC(=O)Nc1ccc(C2CCC(=O)NC2=O)cc1 (stereo partly drawn) [Cmpd 29] turned out to be 15 % of DMSO control

The value of Ymin measured for the compound C[C@@H]1CN(CCCC[C@H]2CC[C@H](N3C(=S)N(c4ccc(C#N)c(C(F)(F)F)c4)C(=O)C3(C)C)CC2)C[C@H](C)N1CC(=O)Nc1ccc(C2CCC(=O)NC2=O)cc1 (stereo partly drawn) [Cmpd 30] turned out to be 20 % of DMSO control

The value of Ymin measured for the compound C[C@@H]1C[C@H](OCCO[C@H]2CC[C@H](N3C(=S)N(c4ccc(C#N)c(C(F)(F)F)c4)C(=O)C3(C)C)CC2)C[C@H](C)N1CC(=O)Nc1ccc(C2CCC(=O)NC2=O)cc1 (stereo partly drawn) [Cmpd 42] turned out to be 19 % of DMSO control

The value of Ymin measured for the compound CC1(C)C(=O)N(c2ccc(C#N)c(C(F)(F)F)c2)C(=S)N1[C@H]1CC[C@H](CCCN2CCN(CC(=O)Nc3ccc(C4CCC(=O)NC4=O)cc3)[C@@H](C(F)(F)F)C2)CC1 (stereo partly drawn) [Cmpd 36] turned out to be 24 % of DMSO control

The value of Ymin measured for the compound C[C@@H]1C[C@H](OCCO[C@H]2CC[C@H](N3C(=S)N(c4cnc(C#N)c(C(F)(F)F)c4)C(=O)C3(C)C)CC2)C[C@H](C)N1CC(=O)Nc1ccc(C2CCC(=O)NC2=O)cc1 (stereo partly drawn) [Cmpd 41] turned out to be 17 % of DMSO control

The value of Ymin measured for the compound CC1(C)C(=O)N(c2cnc(C#N)c(C(F)(F)F)c2)C(=S)N1[C@H]1CC[C@H](OCCN2CCN(CC(=O)Nc3ccc(C4CCC(=O)NC4=O)cc3)[C@@H](C(F)(F)F)C2)CC1 (stereo partly drawn) [Cmpd 28] turned out to be 20 % of DMSO control

The value of Ymin measured for the compound C[C@@H]1C[C@H](CCO[C@H]2CC[C@H](N3C(=S)N(c4cnc(C#N)c(C(F)(F)F)c4)C(=O)C3(C)C)CC2)C[C@H](C)N1CC(=O)Nc1ccc(C2CCC(=O)NC2=O)cc1 (stereo partly drawn) [Cmpd 27] turned out to be 11 % of DMSO control

The value of Ymin measured for the compound CC1(C)C(=O)N(c2ccc(C#N)c(C(F)(F)F)c2)C(=S)N1[C@H]1CC[C@H](OCCCN2CCN(CC(=O)Nc3ccc(C4CCC(=O)NC4=O)cc3)[C@@H](C(F)(F)F)C2)CC1 (stereo partly drawn) [Cmpd 35] turned out to be 21 % of DMSO control

The value of Ymin measured for the compound C[C@@H]1CN(CCCC[C@H]2CC[C@H](N3C(=S)N(c4ccc(C#N)c(C(F)(F)F)c4)C(=O)C3(C)C)CC2)C[C@H](C)N1CC(=O)Nc1cccc(C2CCC(=O)NC2=O)c1 (stereo partly drawn) [Cmpd 24] turned out to be 15 % of DMSO control
